The measurements presented in this section are drawn from paper PMC4027156.

Tested on: yabZαE3L (yaba-like disease virus)
Test: BLI
Conditions: BLI in buffer A (5 mM HEPES pH 7.5, 10 mM NaCl), 2.5-10 uM protein; CD with 7.5 or 15 uM ds-(dCdG)6, protein/DNA 0-8, buffer not shown in material; temperature …
Readout type: pKd
// returns pKd (minus log10 of molar concentration), number only

query: # get_value(readout='pKd', item= ATTATATCGCGCGCGCGCGCGCGCGCGCG / CGCGCGCGCGCGCGCGCGCG [biotin-ATTATAT(CG)10 duplex] )
result: 7.06
